Field: pIC50. Provide a value for each of the compounds that follow.
# Experimental system: GSNOR (GSNO Reductase) (Homo sapiens)
# Construct: made in house; host or cells: E. coli (arabinose-induced)
# Sequence (P11766 whole entry): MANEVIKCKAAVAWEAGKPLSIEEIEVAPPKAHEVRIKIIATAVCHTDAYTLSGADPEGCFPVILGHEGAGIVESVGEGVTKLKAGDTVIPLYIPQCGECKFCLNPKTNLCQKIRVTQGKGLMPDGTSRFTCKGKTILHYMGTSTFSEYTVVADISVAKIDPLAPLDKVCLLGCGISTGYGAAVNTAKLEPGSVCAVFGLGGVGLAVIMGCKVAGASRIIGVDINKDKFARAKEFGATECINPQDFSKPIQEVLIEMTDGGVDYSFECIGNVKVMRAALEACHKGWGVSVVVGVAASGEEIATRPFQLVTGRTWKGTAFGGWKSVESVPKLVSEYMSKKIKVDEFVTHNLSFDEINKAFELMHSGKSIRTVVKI
# Test summary: GSNOR assay (in vitro inhibition of GSNOR activity, change in 340 nm absorbance)
# Assay type: biochemical
# Run parameters: GSNOR inhibitor activity by the assay of Example 2; 0.240 mM GSNO, 0.300 mM NADH, pH 7.4, 25° C.; values given as 'about' bounds
# Method: Various compounds were tested in vitro for their ability to inhibit GSNOR activity. Representative compounds and their corresponding GSNOR activity are described in a paragraph before Table 1 above. GSNOR expression and purification is described in Biochemistry 2000, 39, 10720-10729. […] GSNO and Enzyme/NADH Solutions are made up fresh each day. […] The cuvette is placed in the Cary 3E UV/Visible Spectrophotometer and the change in 340 nm absorbance/min at 25° C. is recorded for 3 minutes. […]
pIC50: −log10 of the molar value.

Record summary for `Cc1cc(C(N)=O)ccc1-n1c(CCc2nnn[nH]2)ccc1-c1ccc(Br)cc1` : reported pIC50 = > 6.00

Record summary for `COc1cc(Br)ccc1-c1ccc(CCc2nnn[nH]2)n1-c1ccc(C(N)=O)cc1C` : reported pIC50 = > 6.00

Record summary for `NC(=O)c1ccc(-n2c(CCc3nnn[nH]3)ccc2-c2ccccc2)cc1` : reported pIC50 = > 6.00

Record summary for `COc1ccc(-c2ccc(Cc3nnn[nH]3)n2-c2ccc(C(N)=O)cc2C)cc1` : reported pIC50 = > 5.30

Record summary for `COc1ccc(-c2ccc(CCc3nnn[nH]3)n2-c2ccc(O)cc2)cc1` : reported pIC50 = > 5.30

Record summary for `COc1ccc(-c2ccc(CCc3nnn[nH]3)n2-c2ccc(C(N)=O)cc2C)cc1` : reported pIC50 = > 5.30

Record summary for `Cc1cc(C(N)=O)ccc1-n1c(Cc2nnn[nH]2)ccc1-c1ccc(Br)cc1` : reported pIC50 = > 6.00

Record summary for `COc1ccc(-c2ccn(CCc3nnn[nH]3)c2-c2ccc(C(N)=O)cc2C)cc1` : reported pIC50 = > 5.30

###

# Experimental system: GSNOR (GSNO Reductase) (Homo sapiens)
# Construct: made in house; host or cells: E. coli (arabinose-induced)
# Test summary: GSNOR assay (in vitro inhibition of GSNOR activity, change in 340 nm absorbance)
# Assay type: biochemical
# Run parameters: GSNOR inhibitor activity by the assay of Example 2; 0.240 mM GSNO, 0.300 mM NADH, pH 7.4, 25° C.; values given as 'about' bounds
pIC50: −log10 of the molar value.
Endpoint name: pIC50

Record summary for `Cc1cc(NS(C)(=O)=O)ccc1-n1c(Cc2nn[nH]n2)ccc1-c1ccc(-n2ccnc2C)s1` : reported pIC50 = > 6.00

Record summary for `COc1cc(Br)ccc1-c1ccc(CCc2nnn[nH]2)n1-c1ccc(O)cc1` : reported pIC50 = > 6.00

Record summary for `COc1cc(Cl)ccc1-c1ccc(CCc2nnn[nH]2)n1-c1ccc(O)cc1` : reported pIC50 = > 6.00

Record summary for `Oc1ccc(-n2c(CCc3nnn[nH]3)ccc2-c2ccc(-n3ccnc3)cc2)cc1` : reported pIC50 = > 6.00
